tested-system: SPR (Homo sapiens, UniProt P35270)
Sequence (P35270 whole entry): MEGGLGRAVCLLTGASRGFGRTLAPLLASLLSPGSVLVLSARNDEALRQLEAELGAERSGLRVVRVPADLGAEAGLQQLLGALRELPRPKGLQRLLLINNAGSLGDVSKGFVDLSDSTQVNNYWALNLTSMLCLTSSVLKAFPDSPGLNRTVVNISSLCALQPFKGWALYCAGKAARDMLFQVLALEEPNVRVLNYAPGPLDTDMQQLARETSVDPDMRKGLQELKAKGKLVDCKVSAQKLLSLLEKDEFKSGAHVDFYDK
experimental-protocol: Cellular SPR activity: BH2 formation from sepiapterin in the presence of methotrexate, human cell lines
Format: cell-based
Parameters: endogenous in cells; host or cells: HaCaT, Jurkat, BeWo, SKNMC, CX-1
condition-parameters: Jurkat (human leukemia); with methotrexate; read-out: SPR IC50, Jurkat cells
measured-endpoint: IC50 (µM)

compound="CC[PH](CC)(CC)[Au][S][C@@H]1O[C@H](COC(C)=O)[C@@H](OC(C)=O)[C@H](OC(C)=O)[C@H]1OC(C)=O [auranofin]" tested_system="SPR (Homo sapiens, UniProt P35270)" experimental_value=7.2

###

tested-system: SPR (Homo sapiens, UniProt P35270)
experimental-protocol: Cellular SPR activity: BH2 formation from sepiapterin in the presence of methotrexate, human cell lines
Assay type: cell-based
Design: endogenous in cells; host or cells: HaCaT, Jurkat, BeWo, SKNMC, CX-1
condition-parameters: BeWo (human choriocarcinoma); with methotrexate; read-out: SPR IC50, BeWo cells
measured-endpoint: IC50 (µM)

smiles_repr=CC[PH](CC)(CC)[Au][S][C@@H]1O[C@H](COC(C)=O)[C@@H](OC(C)=O)[C@H](OC(C)=O)[C@H]1OC(C)=O unit_abbreviation=µM experimental_value=8.9

###

tested-system: SPR (Homo sapiens)
experimental-protocol: Cellular SPR activity: BH2 formation from sepiapterin in the presence of methotrexate, human cell lines
Format: cell-based
Design: endogenous in cells; host or cells: HaCaT, Jurkat, BeWo, SKNMC, CX-1
condition-parameters: HaCaT (human keratinocytes); with MTX 1 μM; auranofin 2 h, then 200 μM sepiapterin 3 h; read-out: SPR IC50, HaCaT cells
pIC50: −log10 of the molar value.
measured-endpoint: pIC50

smiles_repr=CC[PH](CC)(CC)[Au][S][C@@H]1O[C@H](COC(C)=O)[C@@H](OC(C)=O)[C@H](OC(C)=O)[C@H]1OC(C)=O tested_system="SPR (Homo sapiens)" measured_endpoint=pIC50 experimental_value=4.97

###

tested-system: DHFR (Mus musculus)
Construct: endogenous in cells
Sequence (P00375 whole entry): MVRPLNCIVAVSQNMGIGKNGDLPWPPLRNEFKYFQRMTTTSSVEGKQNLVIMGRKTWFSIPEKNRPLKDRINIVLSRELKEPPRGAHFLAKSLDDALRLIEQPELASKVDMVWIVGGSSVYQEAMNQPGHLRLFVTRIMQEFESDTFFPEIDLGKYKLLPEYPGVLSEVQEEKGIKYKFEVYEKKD
experimental-protocol: Cellular DHFR activity: BH4 formation from BH2, RAW264.7 cells
condition-parameters: RAW264.7 (mouse macrophage)
measured-endpoint: IC50 (µM)

smiles_repr=CC[PH](CC)(CC)[Au][S][C@@H]1O[C@H](COC(C)=O)[C@@H](OC(C)=O)[C@H](OC(C)=O)[C@H]1OC(C)=O measured_endpoint=IC50 unit_abbreviation=µM experimental_value=17.2

###

tested-system: DHFR (Rattus norvegicus)
Construct: endogenous in cells
Sequence (Q920D2 whole entry): as the sequence (P00375 whole entry) above, with P27L, R85Q, R99K, I115V, G155E, V170I counted along it
experimental-protocol: Cellular DHFR activity: BH4 formation from BH2, PC12 cells
condition-parameters: PC12 (rat pheochromocytoma)
measured-endpoint: IC50

molecule="CC[PH](CC)(CC)[Au][S][C@@H]1O[C@H](COC(C)=O)[C@@H](OC(C)=O)[C@H](OC(C)=O)[C@H]1OC(C)=O [auranofin]" tested_system="DHFR (Rattus norvegicus)" experimental_value="870 nM"

###

tested-system: SPR (Mus musculus, UniProt Q64105)
Construct: endogenous in cells; host or cells: RAW264.7
Sequence (Q64105 whole entry): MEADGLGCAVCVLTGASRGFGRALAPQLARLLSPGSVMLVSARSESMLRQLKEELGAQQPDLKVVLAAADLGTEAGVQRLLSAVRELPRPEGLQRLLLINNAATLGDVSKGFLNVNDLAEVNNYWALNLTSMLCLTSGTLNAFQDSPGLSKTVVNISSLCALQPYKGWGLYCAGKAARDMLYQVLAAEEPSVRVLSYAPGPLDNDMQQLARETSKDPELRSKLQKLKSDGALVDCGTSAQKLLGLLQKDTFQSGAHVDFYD
experimental-protocol: Cellular SPR activity: BH2 formation from sepiapterin in the presence of methotrexate, RAW264.7 cells
Type: cell-based
condition-parameters: RAW264.7 (mouse macrophage); with methotrexate
Protocol: The growth medium was then removed and the cells incubated with growth medium containing 100 μM sepiapterin. […] BH2 and BH4 were then analyzed on a Jasco high-performance liquid chromatography system (Easton, MD) fitted with a Maxsil-10 C18 column (250 × 4 mm; Phenomenex, Torrance, CA). […] Cell viability following drug treatments was greater than 95 %.
measured-endpoint: IC50 (µM)

compound="CC[PH](CC)(CC)[Au][S][C@@H]1O[C@H](COC(C)=O)[C@@H](OC(C)=O)[C@H](OC(C)=O)[C@H]1OC(C)=O [auranofin]" tested_system="SPR (Mus musculus, UniProt Q64105)" experimental_value=21.3

###

tested-system: DHFR (Homo sapiens, UniProt P00374)
Sequence (P00374 whole entry): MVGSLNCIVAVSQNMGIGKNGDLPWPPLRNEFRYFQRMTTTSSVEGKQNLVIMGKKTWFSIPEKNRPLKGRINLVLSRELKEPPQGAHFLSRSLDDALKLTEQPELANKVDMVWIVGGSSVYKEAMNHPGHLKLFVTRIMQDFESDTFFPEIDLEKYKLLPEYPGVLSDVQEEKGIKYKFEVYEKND
experimental-protocol: Cellular DHFR activity: BH4 formation from BH2, human cell lines
Format: cell-based
Design: endogenous in cells; host or cells: HaCaT, Jurkat, BeWo, SKNMC, CX-1
condition-parameters: Jurkat (human leukemia); BH4 formation from BH2; read-out: DHFR IC50, Jurkat cells
measured-endpoint: IC50 (µM)

compound="CC[PH](CC)(CC)[Au][S][C@@H]1O[C@H](COC(C)=O)[C@@H](OC(C)=O)[C@H](OC(C)=O)[C@H]1OC(C)=O [auranofin]" experimental_value=5.4

###

tested-system: DHFR (Homo sapiens)
experimental-protocol: Cellular DHFR activity: BH4 formation from BH2, human cell lines
Assay type: cell-based
Parameters: endogenous in cells; host or cells: HaCaT, Jurkat, BeWo, SKNMC, CX-1
condition-parameters: CX-1 (human colon adenocarcinoma); BH4 formation from BH2; read-out: DHFR IC50, CX-1 cells
pIC50: −log10 of the molar value.
measured-endpoint: pIC50

molecule="CC[PH](CC)(CC)[Au][S][C@@H]1O[C@H](COC(C)=O)[C@@H](OC(C)=O)[C@H](OC(C)=O)[C@H]1OC(C)=O [auranofin]" experimental_value=5.14

###

Test system: BH4 formation in HaCaT cells
experimental-protocol: BH4 formation from sepiapterin in intact HaCaT cells (HPLC)
Assay type: cell-based, human
condition-parameters: intact HaCaT cells; auranofin 2 h, then 100 μM sepiapterin 3 h; read-out: IC50, inhibition of BH4 formation in intact HaCaT cells
Method: The growth medium was then removed and the cells incubated with growth medium containing 100 μM sepiapterin. […] BH2 and BH4 were then analyzed on a Jasco high-performance liquid chromatography system (Easton, MD) fitted with a Maxsil-10 C18 column (250 × 4 mm; Phenomenex, Torrance, CA). […] Cell viability following drug treatments was greater than 95 %. Fig. 3. […] After an additional 3 h, BH2 and BH4 were extracted from the cells and analyzed by HPLC with fluorescence detection. […]
measured-endpoint: IC50 (µM)

smiles_repr=CC[PH](CC)(CC)[Au][S][C@@H]1O[C@H](COC(C)=O)[C@@H](OC(C)=O)[C@H](OC(C)=O)[C@H]1OC(C)=O tested_system="BH4 formation in HaCaT cells" experimental_value=7.9

###

tested-system: DHFR (Homo sapiens, UniProt P00374)
experimental-protocol: Cellular DHFR activity: BH4 formation from BH2, human cell lines
Type: cell-based
Design: endogenous in cells; host or cells: HaCaT, Jurkat, BeWo, SKNMC, CX-1
condition-parameters: SKNMC (human neuroblastoma); BH4 formation from BH2; read-out: DHFR IC50, SKNMC cells
measured-endpoint: IC50 (µM)

smiles_repr=CC[PH](CC)(CC)[Au][S][C@@H]1O[C@H](COC(C)=O)[C@@H](OC(C)=O)[C@H](OC(C)=O)[C@H]1OC(C)=O unit_abbreviation=µM experimental_value=15.2

###

tested-system: SPR (Homo sapiens)
experimental-protocol: Cellular SPR activity: BH2 formation from sepiapterin in the presence of methotrexate, human cell lines
Assay type: cell-based
Set-up: endogenous in cells; host or cells: HaCaT, Jurkat, BeWo, SKNMC, CX-1
condition-parameters: HaCaT (human keratinocytes); with MTX 1 μM; auranofin 2 h, then 200 μM sepiapterin 3 h; listed as Auranofin; read-out: SPR IC50, HaCaT cells
pIC50: −log10 of the molar value.
measured-endpoint: pIC50

smiles_repr=CC[PH](CC)(CC)[Au][S][C@@H]1O[C@H](COC(C)=O)[C@@H](OC(C)=O)[C@H](OC(C)=O)[C@H]1OC(C)=O tested_system="SPR (Homo sapiens)" measured_endpoint=pIC50 experimental_value=4.97
